biological target: human CXCR3 (Homo sapiens); construct: expressed in transfected cells; host or cells: CHO cells (membrane preparation); assay: [35S]GTPγS exchange assay, CXCR3 receptor inhibition (hI-TAC-induced GTPγS-binding); format: biochemical; conditions: -log IC50 (molar) inhibiting 50% of specific I-TAC-induced GTPγS-binding; membranes of human CXCR3-transfected CHO cells
Sequence (P49682 whole entry): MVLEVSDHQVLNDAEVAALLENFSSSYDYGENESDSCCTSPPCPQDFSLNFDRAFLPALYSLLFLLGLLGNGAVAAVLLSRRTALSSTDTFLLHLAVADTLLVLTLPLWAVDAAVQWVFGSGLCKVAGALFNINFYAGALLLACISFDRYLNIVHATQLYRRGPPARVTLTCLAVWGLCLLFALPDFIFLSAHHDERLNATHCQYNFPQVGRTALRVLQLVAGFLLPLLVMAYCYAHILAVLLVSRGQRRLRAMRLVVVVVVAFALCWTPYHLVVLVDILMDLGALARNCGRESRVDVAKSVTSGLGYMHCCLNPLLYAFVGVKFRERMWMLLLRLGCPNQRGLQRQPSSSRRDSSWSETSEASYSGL
MEASURED PARAMETER: pIC50

MOLECULE | pIC50
O=C1CCC(c2cccc(C(=O)N3CCOCC3)c2)(C2CCN(Cc3ccc(Br)cc3)CC2)C(=O)N1 (centres unmarked) [Compound 37] | 6.1
O=C1CCC(c2cccnc2)(C2CCN(Cc3ccc(Br)cc3)CC2)C(=O)N1 (centres unmarked) [Compound 178] | 6.0
O=C1CCC(c2ccccc2)(C2CCN(Cc3ccc(Br)cc3)CC2)CN1 (centres unmarked) [Compound 5] | 6.3
CCN1C(=O)CCC(c2ccccc2)(C2CCN(Cc3ccc(Br)cc3)CC2)C1=O (centres unmarked) [Compound 126] | 5.6
O=C1CCC(c2cccc(C(=O)NCCCO)c2)(C2CCN(Cc3ccc(Br)cc3)CC2)C(=O)N1 (centres unmarked) [Compound 91] | 5.9
O=C1CCC(c2ccc(C(=O)O)cc2)(C2CCN(Cc3ccc(Br)cc3)CC2)C(=O)N1 (centres unmarked) [Compound 193] | 5.3
O=C1CCC(c2ccccc2)(C2CCN(Cc3ccc(Cl)c(Cl)c3)CC2)C(=O)N1 (centres unmarked) [Compound 80] | 5.9
O=C1CCC(c2ccccc2)(C2CCN(Cc3ccc(Cl)c(F)c3)CC2)C(=O)N1 (single isomer, unassigned) [Compound 41] | 6.4
